Hi there, I'd appreciate the recorded TGI for every entry that follows.
# Tested on: OVCAR-3 ovarian
# METHOD_NOTES: NCI tumour cell line growth inhibition, 48 h

Retrieve TGI on OVCAR-3 ovarian; query "CC(C)=CCC/C(C)=C/Cc1c(O)c(C)cc2c1[nH]c1cc(O)ccc12"
> 25 µM

Retrieve TGI on OVCAR-3 ovarian; query "O=C(NCc1ccco1)C1CCN(S(=O)(=O)c2ccc(Cl)cc2)CC1"
> 100 µM

Retrieve TGI on OVCAR-3 ovarian; query "COc1ccc(CCc2ccc3c(c2)OCO3)cc1"
> 100 µM

Retrieve TGI on OVCAR-3 ovarian; query COC(=O)C(=O)C(C(C)=O)C(=O)NCc1ccccc1 (stereo not given)
> 100 µM

Retrieve TGI on OVCAR-3 ovarian; query "CC(=O)O[C@H]1CC[C@H]2[C@@H]3CCC4=C/C(=N/OCCN(C)C)CC[C@]4(C)[C@H]3CC[C@]12C"
26.7 µM

----------
Hi there, I'd appreciate the recorded TGI for every entry that follows.
# Tested on: HCC-2998 colon
# METHOD_NOTES: NCI tumour cell line growth inhibition, 48 h

Answer with the recorded TGI of "CC(=Nc1cccc(Cl)c1)c1ccncc1" only.
> 100 µM

Answer with the recorded TGI of "O=c1cc(-c2ccccc2)oc2cc(OCCCCCN3CCOCC3)cc(O)c12" only.
8.38 µM

Answer with the recorded TGI of "CC(C)(C)n1c(=O)n(-c2ccccc2)n(C(C)(C)C)c1=O" only.
> 100 µM

Answer with the recorded TGI of "COc1cc2c(NC3CCN(C(C)C)CC3)nc(C3CCCCC3)nc2cc1OCCCN1CCCC1" only.
27.4 µM

Answer with the recorded TGI of "COc1ccc2c(C)cc(N/N=C/c3ccc(C)s3)nc2c1" only.
19.6 µM

Answer with the recorded TGI of CSC1(C(=O)O)C2CCC3C2CCC31 (centres undefined) only.
> 100 µM

Answer with the recorded TGI of "Cc1ccc(NC(=S)C#N)c(C)c1" only.
> 100 µM

Answer with the recorded TGI of COc1ccc2nc3n(c2c1)C(c1c(F)cccc1F)SC3 (centres undefined) only.
> 100 µM

Answer with the recorded TGI of "C=CCSC1=N/C(=C\c2ccc(OC)cc2)C(=O)N1CC=C" only.
79.7 µM

Answer with the recorded TGI of "O=C1CC(Cc2n[nH]c3c2CCCC3)CC(=O)N1" only.
> 100 µM

Answer with the recorded TGI of "C=C1C(=O)O[C@@H]2CC(CO)=C([C@@H](C)CCCO)[C@@H](OC(=O)/C(C)=C\C)[C@H]12" only.
29.6 µM

Answer with the recorded TGI of "C/C(O)=C(\C=NC(=S)c1cccnc1)C(=O)Nc1ccccc1C" only.
> 100 µM

Answer with the recorded TGI of "Cc1nn(Cc2ccccc2)cc1C(=O)Nc1sc2c(c1C(N)=O)CCC(=O)C2" only.
7.41 µM

Answer with the recorded TGI of "CSc1nnc(-c2cc3c([nH]c4ccccc43)c(-c3cccc(O)c3)n2)n1-c1ccc(C)cc1" only.
> 100 µM

Answer with the recorded TGI of "Clc1cc(OCc2nn3c(Cc4ccccc4)nnc3s2)c(Cl)cc1OCc1nn2c(Cc3ccccc3)nnc2s1" only.
> 100 µM

Answer with the recorded TGI of "O=C(OCc1ccccc1)c1ccc(NCc2cc(O)ccc2O)cc1" only.
6.12 µM

Answer with the recorded TGI of "COC(=O)[C@]12C3=C(O)C(=O)C[C@H]1OC[C@H]2C=CC3" only.
> 100 µM

Answer with the recorded TGI of NC(Cc1cccnn1)C(=O)O (centres undefined) only.
> 100 µM

Answer with the recorded TGI of "CN(C)c1cccc(OC(=O)NCCCl)c1" only.
> 100 µM

Answer with the recorded TGI of "CC(=O)N1C(=O)c2cc3ccccc3cc21" only.
> 100 µM

Answer with the recorded TGI of Clc1ccc(C(Cc2ccccc2)c2c(Cl)nc(N3CCNCC3)nc2Cl)cc1 (centres undefined) only.
26 µM

Answer with the recorded TGI of "Nn1c(-c2cccc(Cl)c2)nc2ccccc2c1=O" only.
> 100 µM

Answer with the recorded TGI of "CCOC(=O)CC(=O)Nc1cccc2sc3ncccc3c(=O)c12" only.
> 100 µM

Answer with the recorded TGI of Cc1nc2sc(C(=O)Nc3ccccc3)c(N)c2cc1C(O)c1ccccc1 (centres undefined) only.
6.27 µM

----------
# Tested on: HT29 colon
# METHOD_NOTES: NCI tumour cell line growth inhibition, 48 h
VALUE_TYPE: TGI

Answer with the recorded TGI of "CC(=O)c1ccc2c3c1[C@H]1O[C@H]1c1cccc(c1-3)[C@@H]1O[C@H]21" only.
7.81 µM

Answer with the recorded TGI of "C/C(O)=C(\C=NC(=S)c1cccnc1)C(=O)Nc1ccccc1C" only.
> 100 µM

Answer with the recorded TGI of "[Cl][Hg][c]1ccc2ccccc2c1" only.
9.58 µM

Answer with the recorded TGI of "COc1cc2c3c(n([C@@H]4CCOC4)c(=O)c2cc1OC)-c1cc2c(cc1C3=O)OCO2" only.
> 100 µM

Answer with the recorded TGI of Cc1ccc(C2[C@H]3C(=O)N(c4ccc(Cc5ccc(N6C(=O)[C@@H]7ON(c8ccccc8)C(c8ccc(C)cc8)[C@@H]7C6=O)cc5)cc4)C(=O)[C@H]3ON2c2ccccc2)cc1 (stereo not given in full) only.
> 100 µM

----------
# Tested on: SNB-75 CNS
# METHOD_NOTES: NCI tumour cell line growth inhibition, 48 h; in the data active means GI50 below about 0.43 µM; inactive means the rest
Permitted responses: Yes for active, No for inactive

Answer briefly: the call reported for Cc1ccnc2c(NC(C)CCCN)cc(O)c(O)c12 (stereo not given) in this assay.
No

Answer briefly: the call reported for "CC(C)(O)CCc1cccc(C(=O)c2cnn(-c3ccc(F)cc3)c2N)c1" in this assay.
No

Answer briefly: the call reported for "CC(C)c1[nH]nc2c(NCc3ccc(-c4ccccn4)cc3)nc(SCCN(C)C)nc12" in this assay.
Yes

Answer briefly: the call reported for "CC(C)c1[nH]nc2c(NCc3ccc(-c4ccccn4)cc3)nc(SCCN)nc12" in this assay.
Yes

Answer briefly: the call reported for COc1ccc(/C=C\c2cc(OC)c(OC)c(OC)c2)cc1OC(=O)CC(N)C(=O)O (stereo not given) in this assay.
Yes

----------
Hi there, I'd appreciate the recorded TGI for every entry that follows.
# Test system: SF-268 CNS
# METHOD_NOTES: NCI tumour cell line growth inhibition, 48 h
Response body: numeric value in µM, unit text excluded.

Answer with the recorded TGI of "COc1ccc(/C=N/N=C(\N)NO)cc1F" only.
66.7

Answer with the recorded TGI of "C=CC(=O)Nc1ccccc1CC(c1c[nH]c2ccccc12)c1c[nH]c2ccccc12" only.
43.1

Answer with the recorded TGI of "CC(C)(C)C1=CC(=C2C=Cc3cc(O)ccc3O2)C=C(C(C)(C)C)C1=O" only.
3.87

Answer with the recorded TGI of "O=[N+]([O-])c1cccc(S(=O)(=O)N/N=C/c2cc(I)cc([N+](=O)[O-])c2O)c1" only.
79.3

----------
# System: SF-295 CNS
# METHOD_NOTES: NCI tumour cell line growth inhibition, 48 h
VALUE_TYPE: TGI

Answer with the recorded TGI of "Cc1ccc2c(=O)c(-c3nnc(NC4CCCCC4)s3)c[nH]c2n1" only.
> 100 µM

Answer with the recorded TGI of CCOC(=O)[C@@H]1ON2O[C@@H](OC3CCCCC3c3ccccc3)C[C@H]3OC(=O)[C@@H]1C32 (stereo partly specified) only.
> 100 µM

Answer with the recorded TGI of CCOC(=O)c1csc(C(CSCc2ccc(OC)cc2)N2C(=O)c3ccccc3C2=O)n1 (stereo unspecified) only.
> 100 µM

Answer with the recorded TGI of "N#C/C(=C\c1ccc([N+](=O)[O-])o1)c1n[nH]c(Cc2ccccc2)n1" only.
20.1 µM

Answer with the recorded TGI of "COC(=O)c1ccc(C(=O)OC)c2nc3cc(Cl)ccc3nc12" only.
> 100 µM

Answer with the recorded TGI of CSCC(CO)NC(=O)/C=C/c1c(C)[nH]c(=O)[nH]c1=O (stereo unspecified) only.
> 875 µM

Answer with the recorded TGI of "O=C1C(Cl)=C(Cl)C(=O)N1c1cccc(C(F)(F)F)c1" only.
> 100 µM

Answer with the recorded TGI of COc1ccc(/C=C2\CCC(C)c3c2nc(N)c(C#N)c3-c2ccc(OC)c(OC)c2)cc1OC (stereo unspecified) only.
> 100 µM

Answer with the recorded TGI of Cc1ccc(C)c(NC(=O)C(=O)C2C(=O)N(c3ccccc3)N=C2N)c1 (stereo unspecified) only.
> 100 µM

Answer with the recorded TGI of Cc1nc2sc(C(=O)Nc3ccccc3)c(N)c2cc1C(O)c1ccccc1 (stereo unspecified) only.
4.29 µM

Answer with the recorded TGI of "CCC[CH2][Sn]([CH2]CCC)([O]C(=O)c1cc(F)ccc1F)[O]C(=O)c1cc(F)ccc1F" only.
3.17 µM

Answer with the recorded TGI of Cc1cc(Cl)ccc1N=C1NC(=O)C(CC(=O)Nc2cccc(C)c2C)S1 (stereo unspecified) only.
81.2 µM

Answer with the recorded TGI of "COc1ccc(-c2c(-c3ccccc3)c(C)nc3[nH]c(=S)[nH]c(=S)c23)cc1OC" only.
> 100 µM

Answer with the recorded TGI of "O=C(OCc1ccccc1)c1ccc(NCc2cc(O)ccc2O)cc1" only.
17.1 µM

Answer with the recorded TGI of "CC1=CC(C)(C)Nc2ccc(Cc3ccc4c(c3)C(C)=CC(C)(C)N4)cc21" only.
> 100 µM

Answer with the recorded TGI of "COc1c(-c2ccc3c(c2)OCO3)oc2cc(O)cc(O)c2c1=O" only.
> 100 µM

Answer with the recorded TGI of CCC[n+]1cc2cc3c(cc2c2c1-c1cc4c(cc1C2)OCO4)OCO3 (tested in a mixture with another compound) only.
6.37 µM

Answer with the recorded TGI of "CCCCSc1nc(N)c2cn[nH]c2n1" only.
38.8 µM

Answer with the recorded TGI of O=C1NC2C3CC(OCc4ccccc4)(OCc4ccccc4)C2OC3O1 (stereo unspecified) only.
> 50 µM

Answer with the recorded TGI of CC1(C2COC(=O)C2)SCCCS1 (stereo unspecified) only.
> 100 µM

Answer with the recorded TGI of "O=C1C(Cl)=C(Nc2cc(Cl)ccc2O)C(=O)N1Cc1ccccc1" only.
38.4 µM

Every entry's value here was drawn from PubChem BioAssay (NCI).
